For each entry below, report its log10 GI50 value.
System: A549
Experiment: Growth inhibition of human A549 cells
Type: functional
Annotation: log10 of GI50, µM basis.

Use these answered entries as a reference point.
{"compound": "CCCN1Cc2c(c3ccc(OC)cc3c3cc(OC)c(OC)cc23)C(O)C1 (stereo not given)", "tested-target": "A549", "log10 GI50": -1.30}
{"compound": "CCCCN1CCc2c(c3cc(OC)c(OC)cc3c3c(OC)c(OC)c(OC)cc23)C1", "tested-target": "A549", "log10 GI50": 0.48}
{"compound": "COc1cc2c3c(c4cc(OC)c(OC)cc4c2cc1OC)CN(CCCNC(=O)OC(C)(C)C)CC3", "tested-target": "A549", "log10 GI50": 0.55}
{"compound": "COc1cc2c3c(c4cc(OC)c(OC)cc4c2cc1OC)CN(C1C=CCCC1)CC3 (stereo not given)", "tested-target": "A549", "log10 GI50": 0.28}

Lab note: next compound to report on.
Documented log10 GI50 of COc1cc2c3c(c4cc(OC)c(OC)cc4c2cc1OC)CN(CCCN)CC3 : 0.78

----------
Assay: Cmax in Sprague-Dawley rat at 1.5 mg/kg, po by HPLC-MS method
Type: ADME, organism-based
Design: dose 1.5 mg/kg, route oral
Conditions: in vivo
measurement-type: Cmax (ng/mL)
One number for each entry, in ng/mL.

Documented Cmax of COc1cc2c(cc1OC)[C@@H]1[C@@H](O)[C@@H]3CCC(=O)N3C[C@@H]1c1cc(OC)c(OC)cc1-2 [TYLOPHOVATINE C] : 39

----------
System: MCF7
Assay: Growth inhibition of human MCF7 cells
Assay type: functional
For each entry below, report its GI50 value.
Answers are plain numbers, in nM.

I'm hoping you can list GI50 for every molecule here, please.
1. COc1cc2c3c(c4cc(OC)c(OC)cc4c2cc1OC)CN(C(C)C)CC3
2. CCCCN1Cc2c(c3ccc(OC)cc3c3cc(OC)c(OC)cc23)C(O)C1 (stereo not given)
3. CCCCN1CCc2c(c3cc(OC)c(OC)cc3c3c(OC)c(OC)c(OC)cc23)C1
4. CCCN1CCc2c(c3cc(OC)c(OC)cc3c3c(OC)c(OC)c(OC)cc23)C1
5. COc1cc2c3c(c4cc(OC)c(OC)cc4c2cc1OC)CN(C1C=CCCC1)CC3 (stereo not given)
6. CCN1CCc2c(c3cc(OC)ccc3c3cc(OC)c(OC)cc23)C1

1. 340
2. 2330
3. 3190
4. 620
5. 2210
6. 3120

I'm hoping you can list GI50 for every molecule here, please.
1. CCCN1CCc2c(c3ccc(OC)cc3c3cc(OC)c(OC)cc23)C1
2. COc1cc2c3c(c4cc(OC)c(OC)cc4c2cc1OC)CN(CCCNC(=O)OC(C)(C)C)CC3
3. CCN1CCc2c(c3cc(OC)c(OC)cc3c3cc(OC)c(OC)cc23)C1
4. COc1cc2c3c(c4cc(OC)c(OC)cc4c2cc1OC)CN(CC(C)C)CC3

1: 2830; 2: 3350; 3: 750; 4: 910

----------
Tested on: MCF7
Experiment: Growth inhibition of human MCF7 cells
Assay type: functional
For each entry below, report its GI50 value.
One number for each entry, in µM.

Use these answered entries as a reference point.
{"compound": "CCCN1Cc2c(c3cc(OC)c(OC)cc3c3cc(OC)c(OC)cc23)C(O)C1 (stereo not given)", "endpoint-unit": "µM", "measured": 1.02}
{"compound": "CCCN1CCc2c(c3cc(OC)ccc3c3cc(OC)c(OC)cc23)C1", "endpoint-unit": "µM", "measured": 3.75}
{"compound": "CCCN1CCc2c(c3cc(OC)ccc3c3c(OC)c(OC)ccc23)C1", "endpoint-unit": "µM", "measured": 4.11}

I'm hoping you can list GI50 for every compound here, please.
1. COc1cc2c3c(c4cc(OC)c(OC)cc4c2cc1OC)CN(CCCO)CC3
2. CCCN1CCc2c(c3cc(OC)c(OC)cc3c3cc(OC)ccc23)C1

1: 7.14; 2: 0.42

Origin of the recorded values: ChEMBL document CHEMBL2177013
